src = PubChem BioAssay (NCI)

system: CCRF-CEM leukemia; test: NCI-60 one-dose screen, 48 h (100 = growth as untreated, 0 = no growth, -100 = all killed); settings: 10 µM unless noted
The panel holds about 83,000 compounds, 20% with a hit somewhere; the sample as a whole holds those more often. The source made the active and inactive calls. Rule for the calls: active = growth percent below 10; inactive = the rest.
quantity.kind: growth

Solved entries:
{"molecular.string": "O=C(NCCNc1nccc(-c2c(-c3cccc(O)c3)nc3sccn23)n1)c1ccccc1O", "growth": "18.9% (inactive)"}
{"molecular.string": "CC(=O)Oc1ccc(C(OC(C)=O)OC(C)=O)cc1", "growth": "94.5% (inactive)"}
{"molecular.string": "NC(=S)NNC1CCCCC1", "growth": "84.9% (inactive)"}
{"molecular.string": "C=C1c2c(Cl)ccc(O)c2C(O)=C2C(=O)[C@]3(O)C(O)=C(C(N)=O)C(=O)[C@@H](N(C)C)[C@@H]3[C@@H](O)[C@H]12", "growth": "4.46% (active)"}

Task: Reported growth, compound O=C(Nc1cccc(-n2ccc3c(NC(=O)c4ccccc4)nccc32)c1)Nc1cc(C(F)(F)F)cc(C(F)(F)F)c1 : ____
Output: -4.29% (active)

* * *

tested on: NCI-H522 lung; assay: NCI-60 one-dose screen, 48 h; details: 10 µM unless noted
About 83,000 compounds went through this panel and 20% of them were active in at least one assay; those are over-represented in the sample as a whole. Active and inactive are the calls of the source. The calls were made as follows: active = growth percent below 10; inactive = the rest.
Form entry, call: pick from true (active), false (inactive)

Consider the worked cases shown below.
{"compound": "O=C(O)c1cccc2oc(-c3ccccc3O)nc12", "classification": "false"}
{"compound": "O=C(N/N=C/c1ccccc1O)c1ccccc1O", "classification": "true"}
{"compound": "O=C(NCCNc1nccc(-c2c(-c3cccc(O)c3)nc3sccn23)n1)c1ccccc1", "classification": "false"}
{"compound": "Nc1nc(Cl)c2c(C(F)(F)F)cn(CC3CCNCC3)c2n1", "classification": "true"}

Task: Given CCOC(=O)C1CSC(C)(C(=O)OCC)N1 (stereo unspecified) , state the outcome it received in this test.
Output: false

Task: # lookup: test call for COc1ccc(-c2nn(-c3ccc(NC(=O)Nc4cc(C(F)(F)F)cc(C(F)(F)F)c4)cc3)cc2-c2ccncc2)cc1Cl
Output: true

Task: What was the test verdict on Nc1ncnc2c1c(C(F)(F)F)cn2[C@@H]1O[C@H](CO)[C@@H](O)[C@H]1O ?
Output: true

* * *

tested on: MOLT-4 leukemia; assay: NCI-60 one-dose screen, 48 h; conditions: 10 µM unless noted
This is part of a sample that, as a whole, favours compounds with a hit. Of some 83,000 tested, about 20% had one in any assay. Activity calls are given as the source filed them. Rule for the calls: active = growth percent below 10; inactive = the rest.
Hi! Could you answer with just one of these? active, inactive

Worked set:
{"compound": "CCCC(C)(C)COC(=O)c1cccc(N)c1", "classification": "inactive"}
{"compound": "Nc1nc2ccc(CNc3ccc(C(=O)NC(CC(=O)O)C(=O)O)cc3)cc2c(=O)[nH]1 (stereo not given)", "classification": "inactive"}
{"compound": "CCc1ccc(C2=C/C(=C/c3ccc(Cl)cc3)C(=O)N2CCc2ccc(S(N)(=O)=O)cc2)cc1", "classification": "active"}

Task: So what was the verdict on O=C(O)c1ccc(-n2cc(/C=N/Nc3ccccc3F)c(-c3ccc(O)cc3)n2)cc1 in this test?
Output: inactive

Task: What did the test return for COC(=O)c1oc2c(C(C)=O)c(OCCN3CCCCC3)ccc2c1C ?
Output: inactive

Task: Please state the recorded outcome for this compound: Cc1ccn2cc(Cc3cc(=O)oc4c3ccc3ccccc34)c(=O)nc2c1
Output: inactive

Task: # lookup: test call for COc1cc(-c2nc(N)n(CC(=O)Nc3ccc(/C(C)=N\O)cc3)n2)cc(OC)c1OC
Output: inactive

Task: Record request — test call for COC(=O)c1ccc(NC(N)=NCC(C)(C)COc2ccc(C(F)(F)F)cc2)nc1
Output: active

Task: Which result was noted for this compound in the test: COc1ccc(Cn2cc3c(c2-c2cc(OC)c(OC)c(OC)c2)CCc2c(CO)noc2-3)cc1
Output: inactive

Task: Call for entry CC(C(=O)O)N1C(N)=NNC1c1ccccc1O (stereo not given) :
Output: inactive

* * *

test system: UACC-62 melanoma; test: NCI-60 one-dose screen, 48 h (100 = growth as untreated, 0 = no growth, -100 = all killed); conditions: 10 µM unless noted
The panel holds about 83,000 compounds, 20% with a hit somewhere; the sample as a whole holds those more often.
Output true (1) for growth not less than 90%; output false (0) otherwise.

{"compound": "Cc1cc(-c2ccccc2)nc2ccccc12", "system": "UACC-62 melanoma", "classification": "true (1)"}
{"compound": "COc1ccc(-c2nnc(SCC(=O)N3CCN(c4cc5c(cc4F)c(=O)c(C(=O)O)cn5C4CC4)CC3)o2)cc1OC", "system": "UACC-62 melanoma", "classification": "true (1)"}
{"compound": "COc1cc(/C=C\\c2cc(/C=C\\c3ccc(O)c(OC)c3)n(C(=O)CNc3ccccc3OC)n2)ccc1O", "system": "UACC-62 melanoma", "classification": "false (0)"}
{"compound": "COC(=O)/C=C/C(=O)c1cc(C)cc(C)c1O", "system": "UACC-62 melanoma", "classification": "true (1)"}
{"compound": "Nc1ncnc2c1ncn2C1OC(COC(c2ccccc2)(c2ccccc2)c2ccccc2)C(O)C1O (centres undefined)", "system": "UACC-62 melanoma", "classification": "true (1)"}

Then there is this compound:
Task: Confirm if growth reported for the compound Oc1ccc(O)c(-[n+]2ccccc2)c1 is 90% or above.
Output: true (1)

* * *

Measured growth of individual entries
tested on: OVCAR-3 ovarian; test: NCI-60 one-dose screen, 48 h (100 = growth as untreated, 0 = no growth, -100 = all killed); settings: 10 µM unless noted
This is part of a sample that, as a whole, favours compounds with a hit. Of some 83,000 tested, about 20% had one in any assay.
Respond with the bare value in %.

Reference set, count: 5
{"molecule": "Nc1ncnc2c1ncn2C1OC(COC(c2ccccc2)(c2ccccc2)c2ccccc2)C(O)C1O (stereo not drawn)", "endpoint.unit": "%", "growth": 106}
{"molecule": "COc1ccc(-c2nn(-c3ccc(NC(=O)Nc4ccc(Cl)c(C(F)(F)F)c4)cc3)cc2-c2ccncc2)cc1Cl", "endpoint.unit": "%", "growth": -1.59}
{"molecule": "Cc1cc2nc(-c3c(N)ncc(C#N)c3-c3ccc(Cl)cc3)[nH]c2cc1C", "endpoint.unit": "%", "growth": 21.8}
{"molecule": "COc1ccc(NC(=O)COCCOCCNC[C@@H]2C(=O)O[C@H]3[C@H]2CC/C(COC(=O)OC/C2=C/CC[C@@]4(C)O[C@H]4[C@H]4OC(=O)[C@@H](CN(C)C)[C@@H]4CC2)=C\\CC[C@@]2(C)O[C@@H]32)c(O)c1C(N)=O", "endpoint.unit": "%", "growth": 0.0325}
{"molecule": "CC(C)(C)NC(C1=CC(C)(C)c2ccccc2C1=O)c1ccccc1 (stereo not drawn)", "endpoint.unit": "%", "growth": -92.5}

Task: Consider the molecule CCN(CC)CC(=O)Nc1c(C)cccc1C and give its measured growth.
Output: 118

Task: Dear colleague, I am looking for the recorded growth of the following molecule: COc1cc2nc(C(=O)N3CCCCC3)cc(Nc3ccccc3)c2cc1OC
Output: 93.9

Task: May I ask what growth has been recorded for CCCCNC(=O)Oc1ccc(/C(=C(/CC)Cc2ccccc2)c2ccc(OCCCN(C)C)cc2)cc1 ?
Output: 85.2

* * *

Known growth of a selection of compounds
tested on: M14 melanoma; assay: NCI-60 one-dose screen, 48 h (100 = growth as untreated, 0 = no growth, -100 = all killed); details: 10 µM unless noted
Compounds without any hit were thinned out: in the full panel of roughly 83,000, 20% have a hit. Active and inactive are the calls of the source. Rule for the calls: active = growth percent below 10; inactive = the rest.

Example compounds with recorded growth:
{"molecular.string": "O=[N+]([O-])c1ccccc1NC1c2ccccc2Oc2ccccc21", "result": "36.6% (inactive)"}
{"molecular.string": "Oc1ccccc1/C=N/c1ccccn1", "result": "100% (inactive)"}
{"molecular.string": "CSc1ccc(C(=O)C[n+]2cccc(C)c2)cc1", "result": "103% (inactive)"}
{"molecular.string": "CC[C@H]1[C@@H]2C=C[C@@H]3[C@H]4C/C=C\\C(=O)NCCC[C@@H]5NC(=O)/C(=C(O)/C=C/[C@@H]4C[C@@H]3[C@H]2C[C@H]1C)C5=O", "result": "-10.9% (active)"}

Task: Could you tell me which growth is on file for O=c1c2ccccc2sc2c(NCCCNCCO)nc3ccccc3c12 ?
Output: -61.8% (active)

* * *

test system: KM12 colon; assay: NCI-60 one-dose screen, 48 h (100 = growth as untreated, 0 = no growth, -100 = all killed); conditions: 10 µM unless noted
About 83,000 compounds went through this panel and 20% of them were active in at least one assay; those are over-represented in the sample as a whole.
quantity.kind: growth (%)
Report only the number, with the unit % understood.

{"molecular.string": "O=C(O)c1cn(C2CC2)c2cc(N3CCN(C(=O)CSc4nc(NS(=O)(=O)c5ccccc5)cc(=O)[nH]4)CC3)c(F)cc2c1=O", "quantity.kind": "growth", "endpoint.unit": "%", "measured.number": 91.6}

Task: Look up growth for this compound: O=C(O)c1ccc(-n2cc(/C=N/Nc3ccc(F)cc3)c(-c3cccc(C(F)(F)F)c3)n2)cc1
Output: 52.8

Task: Given C=C1C(=O)O[C@H]2[C@H]1CC/C(C(=O)Nc1ccc(OC)c(C(N)=O)c1O)=C\CC[C@@]1(C)O[C@@H]21 , state its recorded growth.
Output: 85

Task: Give its growth value. Item: CCOC(=O)CSc1nnc(-c2cc3c([nH]c4ccccc43)c(-c3cccc(O)c3)n2)n1-c1ccc(C)cc1
Output: 76.3

Task: State the recorded growth for this entry: COc1ccc(-c2c(C#N)cnc(N)c2-c2nc3cc(C)c(C)cc3[nH]2)cc1
Output: 17.2

Task: Item under review: O=C(C[n+]1ccccc1Cl)c1ccc2c(c1)CCCC2 . Reported growth?
Output: 82.2
